Consider the following molecules; for each one, report its pIC50.
- Test system: human lung cancer strain NCI-H441
- Type: cell-based
*1 amine or outer side, *2 acyl side, *3 side chain or, on linkers, in order; H or OH if unused. Where a SMILES comes first, the peptide text is derived from it. Bridges are numbered along the chain shown (N, C = ends). [ ]: non-standard residue; d: D form. The star is where a group is joined. hPhe(3-Cl-4-CF3) = N[C@@H](CCc1ccc(C(F)(F)F)c(Cl)c1)C(=O)O; X18 = CCCCN([C@@H](Cc1ccc(C(F)(F)F)cc1)C(=O)[*:2])[*:1]; NMeGly(cPent) = CN[C@H](C(=O)O)C1CCCC1; NMeD = CN[C@@H](CC(=O)O)C(=O)O; NMeL = CN[C@@H](CC(C)C)C(=O)O; Morpholide = C1CN(*)CCO1; NMeA = CN[C@@H](C)C(=O)O; Ac5c = NC1(C(=O)O)CCCC1; Aze = O=C(O)[C@@H]1CCN1; Sar = CNCC(=O)O
Units for pIC50: none; it is -log10 of a concentration expressed in mol/L.

Answer with the recorded pIC50 of CCCN(C)C(=O)[C@@H]1CC(=O)N(C)[C@@H](C2CC2)C(=O)N[C@@H]([C@@H](C)CC)C(=O)N(C)CC(=O)N(C)[C@H]2C/C=C\CCN(C2=O)[C@@H](Cc2ccc(C(F)(F)F)cc2)C(=O)N(C)CC(=O)N[C@@H](CCc2cc(F)c(C(F)(F)F)c(F)c2)C(=O)N2C[C@@H](C)C[C@H]2C(=O)NC2(CCC2)C(=O)N(C)[C@@H](C2CCCC2)C(=O)N1C only.
7.95

Answer with the recorded pIC50 of CCCCN1C(=O)[C@@H]2CCN2C(=O)[C@H](C)N(C)C(=O)[C@H]([C@@H](C)CC)NC(=O)[C@H](CC(C)C)N(C)C(=O)C[C@@H](C(=O)N2CCOCC2)N(C)C(=O)[C@H](C2CCCC2)N(C)C(=O)C2(CCCC2)NC(=O)[C@@H]2CCCN2C(=O)[C@H](CCc2ccc(C(F)(F)F)c(Cl)c2)NC(=O)CN(C)C(=O)[C@@H]1Cc1ccc(C(F)(F)F)cc1 [PP0106] ([NMeL]I[NMeA][Aze][X18][Sar][hPhe(3-Cl-4-CF3)]P[Ac5c][NMeGly(cPent)][NMeD]-Morpholide; lactam N-11) only.
7.91

Answer with the recorded pIC50 of CC[C@H](C)[C@@H]1NC(=O)[C@H](CC(C)C)N(C)C(=O)C[C@@H](C(=O)N2CCOCC2)N(C)C(=O)[C@H](C2CCCC2)N(C)C(=O)C2(CCC2)NC(=O)[C@@H]2[C@@H](OCC3CCCC3)CCN2C(=O)[C@H](CCc2cc(F)c(C(F)(F)F)c(F)c2)NC(=O)CN(C)C(=O)[C@H](Cc2ccc(C(F)(F)F)cc2)N2CCCCC[C@@H](C2=O)N(C)C(=O)CN(C)C1=O only.
6.50

###

- Tested on: human lung cancer strain NCI-H441
- Type: cell-based
Where a SMILES comes first, the peptide text is derived from it. Bridges are numbered along the chain shown (N, C = ends). [ ]: non-standard residue; d: D form. The star is where a group is joined. hPhe(3,5-F2-4-CF3) = N[C@@H](CCc1cc(F)c(C(F)(F)F)c(F)c1)C(=O)O; NPrPhe(4-CF3) = CCCN[C@@H](Cc1ccc(C(F)(F)F)cc1)C(=O)O; hPhe(3,4-Cl2) = N[C@@H](CCc1ccc(Cl)c(Cl)c1)C(=O)O; NMeAbu(4,4,4-F3) = CN[C@@H](CC(F)(F)F)C(=O)O; NMeGly(cPent) = CN[C@H](C(=O)O)C1CCCC1; NMeD = CN[C@@H](CC(=O)O)C(=O)O; NMeL = CN[C@@H](CC(C)C)C(=O)O; Morpholide = C1CN(*)CCO1; Ac5c = NC1(C(=O)O)CCCC1; Aze = O=C(O)[C@@H]1CCN1; Sar = CNCC(=O)O
measured quantity: IC50 (nM)
Express your answer in nM, writing the number without its unit.

Answer with IC50 of CCO[C@@H]1C[C@H]2C(=O)NC3(CCC3)C(=O)N(C)[C@@H](C3CCCC3)C(=O)N(C)[C@H](C(=O)N(C)C)CC(=O)N(C)[C@@H](CSC)C(=O)N[C@@H]([C@@H](C)CC)C(=O)N(C)CC(=O)N(C)[C@H]3C/C=C\CCN(C3=O)[C@@H](Cc3ccc(C(F)(F)F)cc3)C(=O)N(C)CC(=O)N[C@@H](CCc3cc(F)c(C(F)(F)F)c(F)c3)C(=O)N2C1 measured for human lung cancer strain NCI-H441.
25.5

Answer with IC50 of CCC[C@H]1C(=O)N[C@@H]([C@@H](C)CC)C(=O)N(C)CC(=O)N(C)[C@H]2C/C=C\CCN(C2=O)[C@@H](Cc2ccc(C)cc2)C(=O)N(C)CC(=O)N[C@@H](CCc2ccc(Cl)c(Cl)c2)C(=O)N2CCCCC[C@H]2C(=O)NC2(CC(C)(C)C2)C(=O)N(C)[C@@H](C(CC)CC)C(=O)N(C)[C@H](C(=O)N(C)C)CC(=O)N1C measured for human lung cancer strain NCI-H441.
39.2

Answer with IC50 of CCC[C@H]1C(=O)N[C@@H]([C@@H](C)CC)C(=O)N(C2CC2)CC(=O)N(C)[C@H]2C/C=C\CCN(C2=O)[C@@H](Cc2ccc(C(F)(F)F)cc2)C(=O)N(C)CC(=O)N[C@@H](CCc2ccc(C(F)(F)F)c(OC)c2)C(=O)N2C[C@H](OCC)C[C@H]2C(=O)NC2(CC(C)(C)C2)C(=O)N(C)[C@@H](CC2CC2)C(=O)N(C)[C@H](C(=O)N(C)C)CC(=O)N1C measured for human lung cancer strain NCI-H441.
188

Answer with IC50 of CCCN1C(=O)CN(C)C(=O)[C@@H]2CCN2C(=O)[C@H]([C@@H](C)CC)NC(=O)[C@H](CC(C)C)N(C)C(=O)C[C@@H](C(=O)N2CCOCC2)N(C)C(=O)[C@H](CC(F)(F)F)N(C)C(=O)C2(CCCC2)NC(=O)[C@@H]2CCCN2C(=O)[C@H](CCc2cc(F)c(C(F)(F)F)c(F)c2)NC(=O)CN(C)C(=O)[C@@H]1Cc1ccc(C(F)(F)F)cc1 [PP0784] ([NMeL]I[Aze][Sar][NPrPhe(4-CF3)][Sar][hPhe(3,5-F2-4-CF3)]P[Ac5c][NMeAbu(4,4,4-F3)][NMeD]-Morpholide; lactam N-11) measured for human lung cancer strain NCI-H441.
447

Answer with IC50 of CC[C@H](C)[C@@H]1NC(=O)[C@H](CC(C)C)N(C)C(=O)C[C@@H](C(=O)N(C)C)N(C)C(=O)[C@H](C2CCCC2)N(C)C(=O)C2(CCCC2)NC(=O)[C@@H]2CC(F)(F)CN2C(=O)[C@H](CCc2cc(F)c(C(F)(F)F)c(F)c2)NC(=O)CN(C)C(=O)[C@H](Cc2ccc(C(F)(F)F)cc2)N2CCCCC[C@@H](C2=O)N(C)C(=O)CN(C)C1=O measured for human lung cancer strain NCI-H441.
18

Answer with IC50 of CCO[C@@H]1C[C@H]2C(=O)NC3(CC(C)(C)C3)C(=O)N(C)[C@@H](C3CCCC3)C(=O)N(C)[C@H](C(=O)N(C)C)CC(=O)N(C)[C@@H](CC3CC3)C(=O)N[C@@H]([C@@H](C)CC)C(=O)N(C)CC(=O)N(C)[C@H]3C/C=C\CCN(C3=O)[C@@H](Cc3ccc(C(F)(F)F)cc3)C(=O)N(C)CC(=O)N[C@@H](CCc3ccc(C(F)(F)F)c(OC)c3)C(=O)N2C1 measured for human lung cancer strain NCI-H441.
2.6

Answer with IC50 of CCO[C@@H]1C[C@H]2C(=O)NC3(CCC3)C(=O)N(C)[C@@H](C3CCCC3)C(=O)N(C)[C@H](C(=O)N3CCOCC3)CC(=O)N(C)[C@@H](CC(C)C)C(=O)N[C@@H]([C@@H](C)CC)C(=O)N3CC[C@H]3C(=O)N(C)[C@H]3CC(C)=CCN(C3=O)[C@@H](Cc3ccc(C(F)(F)F)cc3)C(=O)N(C)CC(=O)N[C@@H](CCc3cc(F)c(C(F)(F)F)c(F)c3)C(=O)N2C1 measured for human lung cancer strain NCI-H441.
18.7

Answer with IC50 of CCCN1C(=O)CN(C)C(=O)CN(C)C(=O)[C@H]([C@@H](C)CC)NC(=O)[C@H](CC(C)C)N(C)C(=O)C[C@@H](C(=O)N2CCOCC2)N(C)C(=O)[C@H](C2CCCC2)N(C)C(=O)C2(CCCC2)NC(=O)[C@@H]2CCCN2C(=O)[C@H](CCc2ccc(Cl)c(Cl)c2)NC(=O)CN(C)C(=O)[C@@H]1Cc1ccc(C(F)(F)F)cc1 [PP0232] ([NMeL]I[Sar][Sar][NPrPhe(4-CF3)][Sar][hPhe(3,4-Cl2)]P[Ac5c][NMeGly(cPent)][NMeD]-Morpholide; lactam N-11) measured for human lung cancer strain NCI-H441.
4.7

Answer with IC50 of CCCN(C)C(=O)[C@@H]1CC(=O)N(C)[C@@H](CCOC)C(=O)N[C@@H]([C@@H](C)CC)C(=O)N(C)CC(=O)N(C)[C@H]2C/C=C\CCN(C2=O)[C@@H](Cc2ccc(C(F)(F)F)cc2)C(=O)N(C)CC(=O)N[C@@H](CCc2ccc(C(F)(F)F)c(OC)c2)C(=O)N2C[C@@H](C)C[C@H]2C(=O)NC2(CC(C)(C)C2)C(=O)N(C)[C@@H](C2CCCC2)C(=O)N1C measured for human lung cancer strain NCI-H441.
18.1

Answer with IC50 of C#CC[C@H]1C(=O)N[C@@H]([C@@H](C)CC)C(=O)N(C)CC(=O)N(C)[C@H]2C/C=C\CCN(C2=O)[C@@H](Cc2ccc(C(F)(F)F)cc2)C(=O)N(C)CC(=O)N[C@@H](CCc2ccc(Cl)c(Cl)c2)C(=O)N2C[C@H](OCC)C[C@H]2C(=O)NC2(CC(C)(C)C2)C(=O)N(C)[C@@H](C2CCCC2)C(=O)N(C)[C@H](C(=O)N(C)CC)CC(=O)N1C measured for human lung cancer strain NCI-H441.
17.7

Answer with IC50 of CC[C@H](C)[C@@H]1NC(=O)[C@H](CC(C)C)N(C)C(=O)C[C@@H](C(=O)N(C)C)N(C)C(=O)[C@H](C2CCCC2)N(C)C(=O)C2(CCCC2)NC(=O)[C@@H]2CCCN2C(=O)[C@H](CCc2ccc(C(F)(F)F)c(Cl)c2)NC(=O)CN(C)C(=O)[C@H](Cc2ccc(C)cc2)N2CC=CCOC[C@H](C2=O)N(C)C(=O)CN(C)C1=O measured for human lung cancer strain NCI-H441.
45.1

Where do the numbers come from? From patent EP4603105A1.
